Values were extracted from patent US10703748B2.

Tested on: α-smooth muscle actin (aSMA) positive LL29 cells
Test: Inhibition of the fibrotic process: αSMA staining in TGF-β1 treated LL29 fibroblasts from IPF patients
Settings: Homo sapiens, Fibroblast, 96 h
pEC50: −log10 of the molar value.
endpoint: pEC50

Examples with answers:
[
  {
    "chemical-smiles": "O=C(Nc1ncc2ccc(-c3cnco3)cc2n1)C1CCN(C(=O)CN2CCCC2)CC1",
    "target-or-test-system": "α-smooth muscle actin (aSMA) positive LL29 cells",
    "result": "< 5.00"
  },
  {
    "chemical-smiles": "Cc1ncc(-c2ccc3cnc(NC(=O)[C@H]4C[C@H](N5CCOCC5)C4)nc3c2)o1",
    "target-or-test-system": "α-smooth muscle actin (aSMA) positive LL29 cells",
    "result": "< 5.00"
  }
]

Moving on to another compound below.
IN: Which measured pEC50 belongs to `Cn1ncc(-c2ccc3cnc(NC(=O)c4ccnc(N5CCOCC5)c4)nc3c2)c1CN1CCOCC1` , tested on α-smooth muscle actin (aSMA) positive LL29 cells?
OUT: < 5.00

###

For each of the compounds below, state its pEC50.
Tested on: α-smooth muscle actin (aSMA) positive LL29 cells
Assay: Inhibition of the fibrotic process: αSMA staining in TGF-β1 treated LL29 fibroblasts from IPF patients
Conditions: Homo sapiens, Fibroblast, 96 h
pEC50: −log10 of the molar value.

Dear reader, for each entry below, please note its pEC50.
1. CN(CC(=O)Nc1cc2cc(-c3cnn(C)c3)cnc2cn1)C1CCC1 [Compound 2776]
2. CN1CCCN(c2cc(C(=O)Nc3cc4cc(-c5cn(C)nn5)ncc4cn3)ccn2)CC1 [Compound 4006]
3. Cc1ncc(-c2cnc3cnc(NC(=O)C4CCN(C5COC5)CC4)cc3c2)s1 [Compound 4622]

OUT:
["< 5.00", "< 5.00", "< 5.00"]

###

Target: GSK3β kinase (Homo sapiens)
Sequence (P49841 whole entry): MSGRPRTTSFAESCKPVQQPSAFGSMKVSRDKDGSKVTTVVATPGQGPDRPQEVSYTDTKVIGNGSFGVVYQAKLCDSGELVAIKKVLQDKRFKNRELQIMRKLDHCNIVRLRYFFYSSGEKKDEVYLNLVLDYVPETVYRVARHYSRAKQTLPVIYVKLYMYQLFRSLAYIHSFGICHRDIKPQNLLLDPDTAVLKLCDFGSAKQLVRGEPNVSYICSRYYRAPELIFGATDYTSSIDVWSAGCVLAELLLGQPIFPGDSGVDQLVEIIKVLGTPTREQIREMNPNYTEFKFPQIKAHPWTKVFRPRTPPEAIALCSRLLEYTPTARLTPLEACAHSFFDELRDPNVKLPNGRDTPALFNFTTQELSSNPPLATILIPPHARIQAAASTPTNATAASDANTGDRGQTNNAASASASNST
Test: GSK3β kinase activity (Ser/Thr 09 peptide Z-lyte FRET assay)
Assay type: biochemical
Details: recombinant kinase, 46 μM ATP, one hour at room temperature; read-out: EC50
endpoint: pEC50
Numbers only, as −log10 of the molar value.

Examples with answers:
[
  {
    "compound": "CC(C)CN1CCC(CC(=O)Nc2cc3cc(-c4cnn(C)c4)ncc3cn2)C1 (stereo not shown)",
    "pEC50": 8.22
  },
  {
    "compound": "Cn1cncc1-c1ccc2cnc(NC(=O)C3CCC(F)(F)CC3)nc2c1",
    "pEC50": 6.42
  },
  {
    "compound": "CN(C)[C@H]1CC[C@H](C(=O)Nc2cc3cc(-c4cncs4)ncc3cn2)CC1",
    "pEC50": 6.73
  },
  {
    "compound": "Cn1cc(-c2cc3cc(NC(=O)C4CCN(CCC(F)(F)F)CC4)ncc3cn2)cn1",
    "pEC50": 8.40
  },
  {
    "compound": "CC(C(=O)Nc1cc2cc(-c3cncn3C)cnc2cn1)N1CCCC1 (stereo not shown)",
    "pEC50": 5.59
  },
  {
    "compound": "Cn1cncc1-c1cc2cc(NC(=O)c3ccc4c(c3)CNC4)ncc2cn1",
    "pEC50": 6.84
  },
  {
    "compound": "Cn1cc(-c2cc3cc(NC(=O)C(C)(C)F)ncc3cn2)nn1",
    "pEC50": 5.82
  },
  {
    "compound": "Cc1ncc(-c2ccc3cnc(NC(=O)c4ccncc4)cc3n2)s1",
    "pEC50": 5.59
  }
]

Dear reader, for each entry below, please note its pEC50.
1. Cc1ncc(-c2ccc3cnc(NC(=O)[C@H]4CC[C@H](N(C)C)CC4)cc3n2)s1
2. CC(F)(F)CN1CCC(C(=O)Nc2cc3cc(-c4cnco4)cnc3cn2)CC1
3. Cc1ncc(-c2cnc3cnc(NC(=O)c4ccnc(N5CCN(C)CC5)c4)cc3c2)s1
4. CN1CCN(Cc2cccc(C(=O)Nc3cc4cc(-c5cnn(C)c5)ncc4cn3)c2)CC1

OUT:
1. 6.96
2. 5.28
3. 5.00
4. 6.61

Dear reader, for each entry below, please note its pEC50.
1. Cn1cc(-c2ccc3cnc(NC(=O)CN4CCOCC4)nc3c2)cn1
2. CNC(=O)c1ccc(C(=O)Nc2ncc3ccc(-c4cn(C)nn4)cc3n2)cn1

OUT:
[7.46, 6.87]

###

Biological target: GSK3β kinase (Homo sapiens)
Assay: GSK3β kinase activity (Ser/Thr 09 peptide Z-lyte FRET assay)
Type: biochemical
Settings: recombinant kinase, 46 μM ATP, one hour at room temperature; read-out: EC50
pEC50: −log10 of the molar value.
For each of the molecules below, state its pEC50.

[
  {
    "chemical-smiles": "O=C(Nc1cc2cc(-c3cncc(OCC4CNC4)n3)cnc2cn1)c1ccc(F)cc1",
    "endpoint": "pEC50",
    "result": "< 5.00"
  },
  {
    "chemical-smiles": "Cn1cc(-c2cc3cc(NC(=O)CCc4ccccc4)ncc3cn2)cn1",
    "endpoint": "pEC50",
    "result": 9.00
  }
]

Moving on to another molecule below.
IN: Which measured pEC50 belongs to `Cn1cncc1-c1cnc2cnc(NC(=O)c3cccc(CN4CCCC4)c3)cc2c1` , tested on GSK3β kinase (Homo sapiens)?
OUT: < 5.00

###

For each of the compounds below, state its EC50.
Biological target: UniProt:P49841
Assay: GSK3β kinase activity (Ser/Thr 09 peptide Z-lyte FRET assay)
Type: biochemical
Details: recombinant kinase, 46 μM ATP, one hour at room temperature; read-out: EC50
Answers are plain numbers, in nM.

[
  {
    "compound": "CN1CCC(Oc2ccc(C(=O)Nc3cc4nc(-c5cnn(C)c5)ccc4cn3)cc2)CC1",
    "target-or-test-system": "UniProt:P49841",
    "endpoint": "EC50",
    "numeric-readout": 2000
  }
]

Dear reader, for each entry below, please note its EC50.
1. CC(C(=O)Nc1cc2cc(-c3cncn3C)ncc2cn1)N1CCCC1 (stereo not drawn)
2. CN1CCN(c2cc(C(=O)Nc3cc4cc(-c5cncs5)ncc4cn3)ccn2)CC1
3. Cc1nnc(-c2cc3cc(NC(=O)C4CCN(C(=O)c5ccccc5)CC4)ncc3cn2)s1
4. Cc1ncc(-c2ccc3cnc(NC(=O)C(C)N4CCCCC4)nc3c2)n1C (stereo not drawn)

OUT:
1. 19
2. 1620
3. 135
4. 346

Dear reader, for each entry below, please note its EC50.
1. Cn1cncc1-c1ccc2cnc(NC(=O)c3ccc(F)cc3)nc2c1
2. CN(CC(=O)Nc1cc2nc(-c3cnn(C)c3)ccc2cn1)C1CCC1
3. Cc1ncc(-c2ccc3cnc(NC(=O)N4CCOCC4)cc3n2)s1
4. CN1CCC(n2cc(C(=O)Nc3ncc4ccc(-c5cnn(C)c5)cc4n3)cn2)CC1

OUT:
1: 1170; 2: 59; 3: 1150; 4: 2530

Dear reader, for each entry below, please note its EC50.
1. CO[C@H]1CC[C@H](C(=O)Nc2cc3cc(-c4nnc(C)s4)ncc3cn2)CC1
2. Cn1cc(-c2cnc3cnc(NC(=O)CC4CNCCO4)cc3c2)cn1 (stereo not drawn)
3. CC(C(=O)Nc1cc2cc(-c3cnn(C)c3)ncc2cn1)N1CCCCC1 (stereo not drawn)

OUT:
828
4940
9

###

For each of the compounds below, state its pEC50.
Tested on: α-smooth muscle actin (aSMA) positive LL29 cells
Experiment: Inhibition of the fibrotic process: αSMA staining in TGF-β1 treated LL29 fibroblasts from IPF patients
Settings: Homo sapiens, Fibroblast, 96 h
Give bare numbers, as −log10 of the molar value.

[
  {
    "compound": "CN(C)C1CCN(c2cc(C(=O)Nc3ncc4ccc(-c5cn(C)nn5)cc4n3)ccn2)CC1",
    "pEC50": 5.60
  }
]

Dear reader, for each entry below, please note its pEC50.
1. CN1CCC(Oc2cccc(C(=O)Nc3cc4cc(-c5cnco5)ncc4cn3)c2)CC1
2. CN(C)Cc1ccc(C(=O)Nc2cc3cc(-c4cnn(C)c4)ncc3cn2)cc1
3. CN1CCC(n2cc(C(=O)Nc3ncc4ccc(-c5cnn(C)c5)cc4n3)cn2)CC1
4. O=C(Nc1cc2cc(-c3cncc(NCC4(F)CNC4)n3)ncc2cn1)C1CC1
5. Cn1cncc1-c1ccc2cnc(NC(=O)C3CCC(F)(F)CC3)nc2c1
6. CN1CCN(c2cccc(C(=O)Nc3ncc4ccc(-c5cnn(C)c5)cc4n3)c2)CC1
7. CN1CCC(Oc2cccc(C(=O)Nc3ncc4ccc(-c5cnco5)cc4n3)c2)CC1
8. CC(C)CN1CCC(CC(=O)Nc2cc3nc(-c4cnn(C)c4)ccc3cn2)C1 (centres unmarked)

OUT:
[5.53, 5.57, 5.84, 6.36, 5.74, 5.71, 5.61, 5.40]

Dear reader, for each entry below, please note its pEC50.
1. Cn1cc(-c2ccc3cnc(NC(=O)c4coc(C5CCNCC5)n4)cc3n2)cn1
2. O=C(Nc1cc2nc(-c3cncs3)ccc2cn1)c1ccc(OC2CCNCC2)cc1
3. Cc1ncc(C(=O)Nc2cc3nc(-c4cnc(C)n4C)ccc3cn2)s1
4. Cc1ncc(-c2ccc3cnc(NC(=O)c4ccncc4)cc3n2)s1
5. Nc1cncc(-c2ccc3cnc(NC(=O)c4ccc(OC5CCNCC5)cc4)cc3n2)c1
6. CC(C)OCCC(=O)Nc1cc2cc(-c3cncn3C)cnc2cn1
7. Cn1cc(-c2ccc3cnc(NC(=O)C4CC4)cc3n2)cn1

OUT:
5.80
6.31
6.29
6.46
6.32
6.87
6.17

IN: For the compound `Cn1cc(-c2cnc3cnc(NC(=O)C4CC4)cc3c2)cn1` , what pEC50 is on record?
OUT: 6.00
